Each entry below lists one item and its recorded pIC50 value.
target.of.assay: UniProtKB P07333
Sequence (P07333 20-972): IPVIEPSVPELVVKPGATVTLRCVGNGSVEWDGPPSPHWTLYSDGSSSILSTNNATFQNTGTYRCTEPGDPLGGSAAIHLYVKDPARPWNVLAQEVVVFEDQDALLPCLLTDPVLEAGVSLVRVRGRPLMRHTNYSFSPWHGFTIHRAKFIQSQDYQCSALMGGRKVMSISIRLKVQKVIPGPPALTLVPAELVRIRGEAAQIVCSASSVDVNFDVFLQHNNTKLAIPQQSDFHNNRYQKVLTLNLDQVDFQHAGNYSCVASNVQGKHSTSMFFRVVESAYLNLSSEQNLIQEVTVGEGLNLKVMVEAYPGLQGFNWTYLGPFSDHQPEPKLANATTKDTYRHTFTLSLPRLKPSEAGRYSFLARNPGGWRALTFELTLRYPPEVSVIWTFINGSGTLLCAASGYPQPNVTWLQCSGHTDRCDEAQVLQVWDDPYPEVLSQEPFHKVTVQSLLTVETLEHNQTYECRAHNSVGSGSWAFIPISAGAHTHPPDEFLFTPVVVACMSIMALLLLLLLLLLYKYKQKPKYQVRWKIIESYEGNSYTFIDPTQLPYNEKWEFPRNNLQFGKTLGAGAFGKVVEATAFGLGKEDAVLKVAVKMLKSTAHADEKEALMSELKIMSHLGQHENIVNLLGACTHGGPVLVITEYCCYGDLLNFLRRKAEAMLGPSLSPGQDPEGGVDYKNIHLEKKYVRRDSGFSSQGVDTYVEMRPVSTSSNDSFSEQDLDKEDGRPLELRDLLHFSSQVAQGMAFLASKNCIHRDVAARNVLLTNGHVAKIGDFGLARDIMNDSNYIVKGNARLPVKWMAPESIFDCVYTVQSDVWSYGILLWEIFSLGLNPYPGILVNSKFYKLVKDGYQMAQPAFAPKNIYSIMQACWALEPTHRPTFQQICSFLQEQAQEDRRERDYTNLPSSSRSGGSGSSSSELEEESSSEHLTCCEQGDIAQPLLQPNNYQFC
procedure.details: Biochemical HTRF kinase assay, CSF-1R;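 also: enzyme incubated with inhibitor plus a substrate and ATP mix for one hour at room temperature before HTRF detection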
conditions: Table 2; recombinant human CSF-1R
The value called pIC50 is obtained by taking minus log10 of the concentration in mol/L.

COc1cnc2c(Cc3cnc(OCc4cc5n(n4)CCO[C@H]5C)c(OC)c3)ccnc2c1 (stereo in doubt) [Example 114] | 8.77
COc1ccc(COc2ncc(Cc3ccnc4cc(N5CCC(OC)C5)cnc34)cc2OC)nc1 (stereo not shown) | 7.91
COc1cnc2c(Cc3cnc(OCc4cc(C(C)C)nn4C)c(OC)c3)ccnc2c1 | 8.59

Could you now look at the following molecule, please?
Quickly give me recorded pIC50 for COc1cnc2c(Cc3cnc(OCc4cccc(C(=O)N(C)C)n4)c(OC)c3)ccnc2c1
7.68

---

procedure.details: In vivo PK study (plasma and brain exposure)
Parameters: species or system CD1 mouse
conditions: male, serum, iv; CD1 mouse, i.v. 2 mg/kg; read-out: IV-2mpk VSS
measured.property: Vd (L/kg)
The figure you give is taken to be in L/kg; do not add the unit.

COc1ccc(COc2ccc(Cc3cnc(N)nc3N)cc2OC)cc1 [GW2580, reference compound] | 3.09
COc1ccc(COc2ncc(Cc3ccnc4cc(-c5ccn(C)n5)cnc34)cc2OC)nc1 | 1.45

Now, please, on to the next compound.
// fetch Vd given entry COc1cnc2c(Cc3cnc(OCc4ccc(C(F)(F)F)nc4)c(OC)c3)ccnc2c1
2.49
